binders and their reported MFI/isotype control normalized to full-length human CD137
# tested.system: T1, human/mouse CD137 chimera 1550
# T1 construct: on transfected FreeStyle 293-F cells
# assay.info: flow cytometry, 293-F cells with CD137 chimera
Form: value (number only, do not type unit).

// worked examples, MFI/isotype control normalized to full-length human CD137 included
- binder: "1620/1621 (antibody, V domains shown) VH: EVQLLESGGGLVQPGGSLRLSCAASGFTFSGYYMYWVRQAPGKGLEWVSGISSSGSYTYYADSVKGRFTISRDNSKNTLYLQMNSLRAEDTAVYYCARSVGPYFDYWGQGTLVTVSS VL: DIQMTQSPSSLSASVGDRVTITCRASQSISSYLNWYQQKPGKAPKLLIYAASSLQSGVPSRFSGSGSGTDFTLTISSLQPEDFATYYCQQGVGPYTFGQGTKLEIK"
  obs.value: 0.17
- binder: "1200/1201 (antibody, V domains shown) VH: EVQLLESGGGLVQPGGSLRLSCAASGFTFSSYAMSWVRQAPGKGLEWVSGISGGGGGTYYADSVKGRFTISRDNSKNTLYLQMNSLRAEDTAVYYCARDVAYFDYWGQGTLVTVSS VL: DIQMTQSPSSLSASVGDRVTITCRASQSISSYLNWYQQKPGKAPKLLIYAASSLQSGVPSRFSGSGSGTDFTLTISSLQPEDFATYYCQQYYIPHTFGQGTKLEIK"
  obs.value: 0.05
- binder: "1202/1203 (antibody, V domains shown) VH: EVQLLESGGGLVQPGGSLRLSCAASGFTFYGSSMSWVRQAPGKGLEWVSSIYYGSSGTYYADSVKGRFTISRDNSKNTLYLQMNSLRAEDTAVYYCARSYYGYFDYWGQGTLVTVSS VL: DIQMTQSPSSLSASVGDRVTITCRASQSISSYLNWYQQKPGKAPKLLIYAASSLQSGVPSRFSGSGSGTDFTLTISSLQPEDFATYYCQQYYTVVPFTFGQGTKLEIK"
  obs.value: 0.05
- binder: "1204/1205 (antibody, V domains shown) VH: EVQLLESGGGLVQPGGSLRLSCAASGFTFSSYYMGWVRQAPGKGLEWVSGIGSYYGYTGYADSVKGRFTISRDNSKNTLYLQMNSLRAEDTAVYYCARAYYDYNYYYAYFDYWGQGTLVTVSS VL: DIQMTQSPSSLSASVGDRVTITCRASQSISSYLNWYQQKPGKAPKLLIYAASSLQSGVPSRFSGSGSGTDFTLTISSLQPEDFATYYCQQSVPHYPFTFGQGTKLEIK"
  obs.value: 0.07
- binder: "1618/1619 (antibody, V domains shown) VH: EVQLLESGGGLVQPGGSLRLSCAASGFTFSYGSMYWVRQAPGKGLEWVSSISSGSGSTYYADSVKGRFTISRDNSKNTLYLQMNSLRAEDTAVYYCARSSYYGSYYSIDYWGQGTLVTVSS VL: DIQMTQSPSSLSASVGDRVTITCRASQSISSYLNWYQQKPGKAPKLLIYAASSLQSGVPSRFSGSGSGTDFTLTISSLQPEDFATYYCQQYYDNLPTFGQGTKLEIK"
  obs.value: 0.11

For record 1626/1627 (antibody, V domains shown) VH: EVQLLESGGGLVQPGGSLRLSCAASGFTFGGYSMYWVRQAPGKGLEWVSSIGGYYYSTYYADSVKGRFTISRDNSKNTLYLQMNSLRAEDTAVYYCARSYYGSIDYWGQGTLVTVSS VL: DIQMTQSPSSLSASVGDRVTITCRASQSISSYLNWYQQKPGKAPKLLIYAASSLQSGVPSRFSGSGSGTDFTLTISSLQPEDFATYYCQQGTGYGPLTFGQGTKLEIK the listed MFI/isotype control normalized to full-length human CD137 is 0.1
